system: MZ2-MEL; experiment: cells; format: functional, cell-based, Homo sapiens; settings: Homo sapiens, MZ2-MEL;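 further: growth inhibition of MZ2-MEL cells read out with a cell viability assay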
Description: SANGER: Inhibition of human MZ2-MEL cell growth in a cell viability assay.
property-measured: IC50 (nM)

>>> number("CC(=O)O[C@H]1C(=O)[C@@]2(C)[C@H]([C@H](OC(=O)c3ccccc3)[C@]3(O)C[C@H](OC(=O)[C@H](O)[C@@H](NC(=O)c4ccccc4)c4ccccc4)C(C)=C1C3(C)C)[C@]1(OC(C)=O)CO[C@@H]1C[C@@H]2O [PACLITAXEL]")
47.4
>>> number("Cn1cnc2c(F)c(Nc3ccc(Br)cc3Cl)c(C(=O)NOCCO)cc21 [SELUMETINIB]")
394

###

test system: NCI-H1563; assay: cells; assay type: functional, cell-based, Homo sapiens; conditions: Homo sapiens, NCI-H1563
Description: SANGER: Inhibition of human NCI-H1563 cell growth in a cell viability assay.
pIC50: −log10 of the molar value. Structures can show the parent of a compound that is named as a salt.
property-measured: pIC50

>>> result("Cc1cn(-c2cc(NC(=O)c3ccc(C)c(Nc4nccc(-c5cccnc5)n4)c3)cc(C(F)(F)F)c2)cn1")
"< 5.70"
>>> result("CC(C)CCN1c2nc(Nc3cc(F)c(O)c(F)c3)ncc2N(C)C(=O)C1C (centres undefined)")
"< 5.30"
>>> result("COC1=CC(c2cc3ccccc3[nH]2)=N/C1=C\\c1[nH]c(C)cc1C [OBATOCLAX MESYLATE]")
"< 4.80"
>>> result("Nc1ccn([C@@H]2O[C@H](CO)[C@@H](O)C2(F)F)c(=O)n1")
"< 5.99"
